Test system: Streptococcus
test.method.notes: GAS UMAA2166 growth inhibition – luminescence, BacTiterGlo, counter-screen for streptokinase expression inhibitor project, dose response (AID 1915);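 note: potency for reduction of bacterial viability or growth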
Type: functional, organism-based
Active and inactive are the calls of the source. Cut-off read from the data, not from the text of the source: actives have a measured EC50 and inactives only a lower limit.
measured.attribute: EC50

Query: Give EC50 for the following molecule: CC1(C)OC(C(O)(c2ccccc2)c2ccccc2)[C@@H](C(O)(c2ccccc2)c2ccccc2)O1 (stereo not given in full)
Result: > 150 µM (not active)

Query: Give EC50 for the following molecule: c1ccc(-c2onc(-c3ccco3)c2-c2ccc3[nH]ccc3c2)cc1
Result: 26.4 µM (active)

Query: Give EC50 for the following molecule: CCCCCCn1c(=O)c(C(=O)Nc2cnccn2)c(O)c2ccccc21
Result: 13 µM (active)

Query: Give EC50 for the following molecule: CCC(C(=O)N1CCC(N2CCCCC2)CC1)n1nc(C)c2sc3ccccc3c2c1=O (stereo not given)
Result: > 150 µM (not active)

Query: Give EC50 for the following molecule: Cc1ccc2nc(Nc3nc(O)cc(-c4ccccc4)n3)nc(C)c2c1
Result: 6.98 µM (active)
